Each recorded value in this set is attributed to PubChem BioAssay AID1159580.

experiment: chemical genetic growth profiling, strain panel (AID 1159580);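 also: tested at 20 µM; growth read once vehicle control cultures reached saturation at 30 °C; 1 = growth at the plate median or of vehicle wells; lower values mean less growth of the strain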; details: S. cerevisiae deletion strains, growth OD, locus YEL061C, strain CIN8, stronger effect = lower value
Screen size: about 5,500 compounds; about 2,000 (36%) were called active. Not shown: some 18% with an inconclusive outcome. The list shows a part of the results.
readout-label: normalized growth
Format: numeric value only, no unit, no commentary.

As a guide, the following entries are already answered.
[
  {
    "compound": "COc1cc2c(cc1OC)C(C)NCC2 (configuration not stated)",
    "normalized growth": 0.995
  },
  {
    "compound": "Cc1cc2c(cc1C)CSC(C)(c1ccc(F)cc1)SC2",
    "normalized growth": 1.02
  },
  {
    "compound": "CC(C)[C@@H]1CC[C@@H](C)CC1=O",
    "normalized growth": 1
  },
  {
    "compound": "O=C1c2ccccc2C(=O)N1CNc1cccc(Cl)c1",
    "normalized growth": 0.986
  },
  {
    "compound": "COC(=O)C(Cc1c[nH]c2ccccc12)NC(=O)c1c(Cl)cccc1Cl (configuration not stated)",
    "normalized growth": 1.01
  },
  {
    "compound": "CNC(=O)N(C)c1nnc(C(C)(C)C)s1",
    "normalized growth": 1.01
  },
  {
    "compound": "COc1ccc(/C=C/c2cc(O)cc(O[C@@H]3O[C@H](CO)[C@@H](O)[C@H](O)[C@H]3O)c2)cc1",
    "normalized growth": 0.994
  },
  {
    "compound": "COc1ccccc1OCC(O)COC(N)=O (configuration not stated)",
    "normalized growth": 0.98
  }
]

Form field normalized growth, entry O=c1c(O)c(-c2ccccc2)oc2ccccc12 : 0.984

Record CNC(=O)Oc1cccc2c1OC(C)(C)C2 , field normalized growth: 1

* * *

Listed below: normalized growth values for each entry.
test: chemical genetic growth profiling, strain panel (AID 1159580);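 also: tested at 20 µM; growth read once vehicle control cultures reached saturation at 30 °C; 1 = growth at the plate median or of vehicle wells; lower values mean less growth of the strain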; details: S. cerevisiae deletion strains, growth OD, locus YOR231W, strain MKK1, stronger effect = lower value
About 2,000 (36%) of roughly 5,500 compounds were called active. Another 18% or so got no clear call; they are omitted. The list shows a part of the results.
# output: bare number, no unit

As a guide, the following entries are already answered.
[
  {
    "test-smiles": "NC(N)=NC(N)=NCCc1ccccc1",
    "normalized growth": 0.975
  },
  {
    "test-smiles": "Cn1cnc2c1c(=O)[nH]c(=O)n2C",
    "normalized growth": 0.976
  }
]

Recorded result, CC(C)N=C(N)N=C(N)Nc1ccc(Cl)cc1 , normalized growth: 1.01

Recorded normalized growth (compound O[C@@H]1[C@H](O)CO[C@H]1O ): 0.992

* * *

experiment: chemical genetic growth profiling, strain panel (AID 1159580);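 also: tested at 20 µM; growth read once vehicle control cultures reached saturation at 30 °C; 1 = growth at the plate median or of vehicle wells; lower values mean less growth of the strain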; details: S. cerevisiae deletion strains, growth OD, locus YNL067W, strain RPL9B, stronger effect = lower value
The whole screen tested about 5,500 compounds, of which about 2,000 (36%) were called active. Not shown: some 18% with an inconclusive outcome. The list shows a part of the results.
readout-label: normalized growth
// no unit string in output, number only

Worked examples follow.
[
  {
    "compound": "CC(C)C1CCC(C(=O)N[C@@H](Cc2ccccc2)C(=O)O)CC1 (stereo partly drawn)",
    "normalized growth": 0.999
  },
  {
    "compound": "C=C(C)C1Cc2c(ccc3c(=O)c4c(oc23)COc2cc(OC)c(OC)cc2-4)O1 (stereo not drawn)",
    "normalized growth": 0.984
  },
  {
    "compound": "Cn1c(=O)c2c(ncn2C)n(C)c1=O",
    "normalized growth": 1
  },
  {
    "compound": "Cn1c(=O)c2c(ncn2CCCl)n(C)c1=O",
    "normalized growth": 1.01
  },
  {
    "compound": "COC(=O)C(O)[C@H]1C(C)(C)[C@@H](OC(C)=O)[C@@H]2CC3=C4CC(=O)O[C@@H](c5ccoc5)[C@]4(C)CCC3[C@@]1(C)C2=O (stereo partly drawn)",
    "normalized growth": 0.991
  },
  {
    "compound": "COC(=O)c1cc(OC)c(=O)c2c(OC)c(OC)ccc2c1",
    "normalized growth": 0.998
  }
]

The compound identified as CC(=O)OC1CCC2(O)CC1(C)CCC1C2CC1(C)C (stereo not drawn) registered its normalized growth at 1.01
